Tested on: M14 melanoma
Test: NCI tumour cell line growth inhibition, 48 h; in the data active means GI50 below about 0.43 µM; inactive means the rest
Labels: 1 for active, 0 for inactive

>>> group("OCc1ccc(N2CCOCC2)cc1Cl")
0
>>> group("CC(=O)Oc1c(C)c(C)c2c(c1C)CCC(C)(CC(=O)OCCCCCCCCCCC[P+](c1ccccc1)(c1ccccc1)c1ccccc1)O2 (centres undefined)")
1
>>> group("CC(C)Oc1ccc(C(=O)Cn2ccnc2)cc1-n1c(CN2CCN(C(=O)COc3ccc(Cl)cc3)CC2)nc2ccccc2c1=O")
0
>>> group("CCCCCCCCCCCCCC[n+]1cccc(C(N)=O)c1")
0
>>> group("COc1ccc(-n2nc(C)c3c(Nc4ccc(NC(=O)Nc5ccc(Cl)c(C(F)(F)F)c5)cc4)ncnc32)cc1")
0
>>> group("CCNCCNc1cc(-c2ccc(C#N)cc2)c(C#N)c2nc3ccccc3n12")
0
>>> group("O=C(/C=C/c1cccc(O)c1)c1cccc(-n2cc(-c3ccc4ccccc4c3)[nH]c2=O)c1")
0
>>> group("[2H]c1nc(=Nc2cc(NC(=O)C=C)c(N(C)CCN(C)C)cc2OC)[nH]c(-c2cn(C([2H])([2H])[2H])c3ccccc23)c1[2H]")
0
>>> group("CC(=Nc1ccc(S(N)(=O)=O)cc1)c1c(O)[nH]c2ccccc12")
0

Cited source for all entries: PubChem BioAssay (NCI)
